target: T1, human immunoglobulin E (hIgE) (human, UniProt P01854-1 1-428); assay: SPR competition, hIgE over hFcεRIα chip, pH 5.5
T1 construct: also called human IgE; Native IgE (Abcam)
T1 sequence (P01854 whole entry): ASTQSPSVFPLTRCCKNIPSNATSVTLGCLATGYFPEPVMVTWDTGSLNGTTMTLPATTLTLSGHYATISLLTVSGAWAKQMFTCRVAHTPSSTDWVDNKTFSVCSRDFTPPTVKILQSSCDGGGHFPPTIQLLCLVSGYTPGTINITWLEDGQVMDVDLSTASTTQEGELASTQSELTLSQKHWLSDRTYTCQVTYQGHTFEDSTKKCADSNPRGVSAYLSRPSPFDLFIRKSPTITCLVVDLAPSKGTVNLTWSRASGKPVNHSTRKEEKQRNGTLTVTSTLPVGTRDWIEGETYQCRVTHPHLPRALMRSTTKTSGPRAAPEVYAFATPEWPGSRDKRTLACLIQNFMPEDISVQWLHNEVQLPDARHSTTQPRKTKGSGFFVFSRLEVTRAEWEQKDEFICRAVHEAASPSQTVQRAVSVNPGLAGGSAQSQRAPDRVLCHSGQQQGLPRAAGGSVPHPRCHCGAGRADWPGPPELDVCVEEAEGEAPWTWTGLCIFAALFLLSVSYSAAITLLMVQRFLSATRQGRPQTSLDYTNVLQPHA
IC50 listing for selected binders.
I only need the number, in µg/mL, no unit after it.

Recorded results for 2 binders are shown here.
{"columns": ["binder", "recorded value"],
 "data": [
  ["3D1 human IgG1 mAb (antibody, V domains shown, human IgG1 and human light chain constant domains; also called clone 3D1; WT 3D1) VH: QLQVVESGGGLVQPGGSLRLSCAASGFTFSSYYMSWVRQAPGKGLEWVSSIYSDGRGSKTFYADSVKGRFTISRDNAKNTLYLQMNSLKSEDTAVYFCAKDLLVAARGSMDYWGQGTQVTVSS VL: NFMLTQPSAVSVSLEQTARITCQGGTLGSYGAHWYQQKPGQAPVLLIYGDNSRPSGIPERFSGTRSGGTATLTISGAQAEDEADYYCQSFDYSGNAVFGGGTHLTVL", 11.7],
  ["18B9 human IgG1 mAb (antibody, V domains shown, human IgG1 and human light chain constant domains; also called clone 18B9) VH: QVQLVESGGGLVQPGGSLRLSCAASGFTFSSYVMSWVRQAPGKGLEWVSSIYSDGSHTYYADSVKGRFTISRDNAKNTLYLQMNSLKSEDTAVYYCAKNLEHYSGSYYYTDPRYDYWGQGTQVTVSS VL: SSALTQPSALSVTLGQTAKITCQGGSLGSSYVHWYQQKPGQAPVLVIYDGDSRPSGIPERFSGSSSGGTATLTISGAQAEDEDDYYCQSADSSGNAVFGGGTHLTVL", 1.07]
]}

Please look at the following binder next.
stdin: Provide IC50 value for the following binder: VH3D1_S35H (antibody, V domains shown) VH: QLQVVESGGGLVQPGGSLRLSCAASGFTFSSYYMHWVRQAPGKGLEWVSSIYSDGRGSKTFYADSVKGRFTISRDNAKNTLYLQMNSLKSEDTAVYFCAKDLLVAARGSMDYWGQGTQVTVSS VL: NFMLTQPSAVSVSLEQTARITCQGGTLGSYGAHWYQQKPGQAPVLLIYGDNSRPSGIPERFSGTRSGGTATLTISGAQAEDEADYYCQSFDYSGNAVFGGGTHLTVL
stdout: 23
